Below: a set of entries, each annotated with reported EC50.
- Tested on: HL-60
- procedure-details: Effective concentration required for induction of differentiation of HL-60 cells into mature granulocytes.
- Format: functional
- experimental-context: Homo sapiens, read-out: ED50 (the source's name)
result-type: EC50 (nM)

INSERT INTO results (smiles, result_type, measure_unit, measured) VALUES
  ('CC1(C)CCC(C)(C)c2cc(N3CCN(c4ccc(C(=O)O)cc4)C3=O)ccc21', 'EC50', 'nM', 120),
  ('CC1(C)CCC(C)(C)c2cc(NC(=O)c3ccc(C(=O)O)cc3)ccc21', 'EC50', 'nM', 0.8),
  ('CC(C)(C)c1cc(N2CCN(c3ccc(C(=O)O)cc3)C2=O)cc(C(C)(C)C)c1', 'EC50', 'nM', 8.3),
  ('CC(C)(C)c1cc(N2CCCN(c3ccc(C(=O)O)cc3)C2=O)cc(C(C)(C)C)c1', 'EC50', 'nM', 490),
  ('CC1=C(/C=C/C(C)=C/C=C/C(C)=C/C(=O)O)C(C)(C)CCC1', 'EC50', 'nM', 2.4);
